# Tgt: human Dopamine D2L receptor (Homo sapiens)
# Construct: expressed in transfected cells; host or cells: CHO cells
# Method summary: In vitro binding affinity for human D2L receptor ([3H]Spiperone binding)
# Condition parameters: human D2L receptor-transfected CHO cell membranes, read-out: D2L pIC50 (converted)
Measured parameter: IC50 (nM)
Give the number; nM is assumed, so skip it.

Prompt line: Provide the documented IC50 with human Dopamine D2L receptor (Homo sapiens) as the system for C=CCN(C)C(=O)C1CCN(CC2CC3c4ccccc4Cc4ccc(F)cc4C3O2)CC1 (stereo not shown)
Response line: 11.7

Prompt line: Request: COC1CCN(C[C@H]2C[C@@H]3c4ccccc4Cc4ccc(F)cc4[C@@H]3O2)C1 (stereo partly shown)
Response line: 16.2

Prompt line: Request: CCOC(=O)C1CCCCN1C(=O)C1CCN(CC2CC3c4ccccc4Cc4ccc(F)cc4C3O2)CC1 (mixture of isomers)
Response line: 12.6

---

# Tgt: NET (norepinephrine transporter) (Rattus norvegicus)
# Construct: Cortex from rat brain was collected and homogenised; from tissue; host or cells: rat brain cortex
# Sequence (Q63380 1-617): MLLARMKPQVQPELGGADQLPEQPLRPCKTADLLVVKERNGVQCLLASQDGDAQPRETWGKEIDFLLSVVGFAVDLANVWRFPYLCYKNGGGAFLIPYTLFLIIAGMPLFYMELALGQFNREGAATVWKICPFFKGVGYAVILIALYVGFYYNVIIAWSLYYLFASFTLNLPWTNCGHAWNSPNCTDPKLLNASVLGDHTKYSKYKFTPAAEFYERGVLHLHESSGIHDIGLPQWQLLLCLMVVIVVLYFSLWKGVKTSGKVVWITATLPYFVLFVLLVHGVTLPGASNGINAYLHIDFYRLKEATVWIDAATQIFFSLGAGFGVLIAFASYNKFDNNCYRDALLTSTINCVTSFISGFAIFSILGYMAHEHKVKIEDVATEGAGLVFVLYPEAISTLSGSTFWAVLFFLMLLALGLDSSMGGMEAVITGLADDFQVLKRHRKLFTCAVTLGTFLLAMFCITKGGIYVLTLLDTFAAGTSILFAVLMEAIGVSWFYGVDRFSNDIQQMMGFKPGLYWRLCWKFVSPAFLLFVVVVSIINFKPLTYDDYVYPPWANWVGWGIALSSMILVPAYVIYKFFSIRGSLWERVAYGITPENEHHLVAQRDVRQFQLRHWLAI
# Method summary: In vitro determination of NET reuptake inhibition ([3H]Nixosetine binding, rat brain cortex)
# Condition parameters: rat brain cortex, read-out: NET pIC50 (converted)
Measured parameter: log10 of IC50 (log10 of the value in µM)
// stored as log10 of IC50 expressed in µM

{"Compound": "Fc1ccc2c(c1)C1OC(CN3CCN(c4ncccc4C(F)(F)F)CC3)CC1c1ccccc1C2 (centres unmarked)", "Tgt": "NET (norepinephrine transporter) (Rattus norvegicus)", "log10 of IC50": 0.55}
{"Compound": "O=C(NC1CCN(CC2CC3c4ccccc4Cc4ccc(F)cc4C3O2)CC1)c1cccc(F)c1 (centres unmarked)", "Tgt": "NET (norepinephrine transporter) (Rattus norvegicus)", "log10 of IC50": 0.93}
{"Compound": "O=C(CCN1CCN(CC2CC3c4ccccc4Cc4ccc(F)cc4C3O2)CC1)c1ccc(F)cc1 (centres unmarked)", "Tgt": "NET (norepinephrine transporter) (Rattus norvegicus)", "log10 of IC50": -0.31}
{"Compound": "OCCCC1CCN(CC2CC3c4ccccc4Cc4ccc(F)cc4C3O2)CC1 (centres unmarked)", "Tgt": "NET (norepinephrine transporter) (Rattus norvegicus)", "log10 of IC50": 0.27}
{"Compound": "Fc1ccc2c(c1)C1OC(CN3CCN(c4ccccn4)CC3)CC1c1ccccc1C2 (centres unmarked)", "Tgt": "NET (norepinephrine transporter) (Rattus norvegicus)", "log10 of IC50": 0.66}
{"Compound": "COc1ccc(OCC2CCN(C[C@H]3C[C@@H]4c5ccccc5Cc5ccc(F)cc5[C@@H]4O3)C2)cc1 (some centres unmarked)", "Tgt": "NET (norepinephrine transporter) (Rattus norvegicus)", "log10 of IC50": 0.34}

Prompt line: # get_value(readout='log10 of IC50', item= N#Cc1cccc(OC2CCN(CC3CC4c5ccccc5Cc5ccc(F)cc5C4O3)C2)c1 (mixture of isomers) )
Response line: 0.93

Prompt line: Request: `O=C1CCN(C[C@H]2C[C@@H]3c4ccccc4Cc4ccc(F)cc4[C@@H]3O2)C1`
Response line: 0.21

---

# Tgt: human Dopamine D2L receptor (Homo sapiens, UniProt P14416)
# Construct: expressed in transfected cells; host or cells: CHO cells
# Sequence (P14416 whole entry): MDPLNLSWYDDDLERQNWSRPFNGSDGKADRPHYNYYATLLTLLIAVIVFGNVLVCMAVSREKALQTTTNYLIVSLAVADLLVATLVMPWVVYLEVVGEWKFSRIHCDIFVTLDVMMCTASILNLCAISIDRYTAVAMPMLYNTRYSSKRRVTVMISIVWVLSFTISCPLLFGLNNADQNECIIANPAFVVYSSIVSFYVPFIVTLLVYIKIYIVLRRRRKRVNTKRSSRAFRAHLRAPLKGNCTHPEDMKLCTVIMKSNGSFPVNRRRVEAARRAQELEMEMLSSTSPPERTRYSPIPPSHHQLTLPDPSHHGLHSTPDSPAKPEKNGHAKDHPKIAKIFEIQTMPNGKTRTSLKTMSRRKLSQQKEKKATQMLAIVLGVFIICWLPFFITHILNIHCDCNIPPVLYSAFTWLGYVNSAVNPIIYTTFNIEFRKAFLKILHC
# Method summary: In vitro binding affinity for human D2L receptor ([3H]Spiperone binding)
# Condition parameters: human D2L receptor-transfected CHO cell membranes, read-out: D2L pIC50 (converted)
Kindly apply the following: t if IC50 is less than 30 nM, f in every other case.

Below are worked cases with known answers.
{"Molecule": "O=C1CCN(C[C@H]2C[C@@H]3c4ccccc4Cc4ccc(F)cc4[C@@H]3O2)C1 [Compound 7]", "Tgt": "human Dopamine D2L receptor (Homo sapiens, UniProt P14416)", "Label value": "f"}
{"Molecule": "O=C(NCc1cccs1)C1CCN(CC2CC3c4ccccc4Cc4ccc(F)cc4C3O2)CC1 (centres unmarked) [Compound 195]", "Tgt": "human Dopamine D2L receptor (Homo sapiens, UniProt P14416)", "Label value": "t"}
{"Molecule": "OC1CCCN(CC2CC3c4ccccc4Cc4ccc(F)cc4C3O2)C1 (single isomer, unassigned) [Compound 142]", "Tgt": "human Dopamine D2L receptor (Homo sapiens, UniProt P14416)", "Label value": "t"}
{"Molecule": "C#CCOC(=O)NC1CCN(CC2CC3c4ccccc4Cc4ccc(F)cc4C3O2)CC1 (centres unmarked) [Compound 217]", "Tgt": "human Dopamine D2L receptor (Homo sapiens, UniProt P14416)", "Label value": "t"}
{"Molecule": "Fc1ccc2c(c1)C1OC(CN3CCN(Cc4cccc(Oc5ccccc5)c4)CC3)CC1c1ccccc1C2 (centres unmarked) [Compound 76]", "Tgt": "human Dopamine D2L receptor (Homo sapiens, UniProt P14416)", "Label value": "f"}

Prompt line: Find out if reported IC50 for Fc1ccc2c(c1)C1OC(CN3CCN(Cc4cccc5ccccc45)CC3)CC1c1ccccc1C2 (centres unmarked) [Compound 75] is less than 30 nM
Response line: f

Prompt line: Request: COc1cc2c(cc1OC)CN(C[C@H]1C[C@@H]3c4ccccc4Cc4ccc(F)cc4[C@@H]3O1)CC2 [Compound 276]
Response line: t

Prompt line: Request: Fc1ccc2c(c1)C1OC(CN3CCN(Cc4ccc(-c5ccc(Cl)cc5)o4)CC3)CC1c1ccccc1C2 (centres unmarked) [Compound 62]
Response line: f

Prompt line: Request: OCC1CC2CN(C[C@H]3C[C@@H]4c5ccccc5Cc5ccc(F)cc5[C@@H]4O3)CCC2O1 (some centres unmarked) [Compound 274]
Response line: t

Prompt line: Request: CC(=O)C1(c2ccccc2)CCN(C(=O)C2CCN(CC3CC4c5ccccc5Cc5ccc(F)cc5C4O3)CC2)CC1 (centres unmarked) [Compound 209]
Response line: f

Prompt line: Request: COCC(=O)N1CCN(CC2CC3c4ccccc4Cc4ccc(F)cc4C3O2)CC1 (centres unmarked) [Compound 77]
Response line: f

Prompt line: Request: O=C(NCc1ccc(F)cc1)N1CCN(CC2CC3c4ccccc4Cc4ccc(F)cc4C3O2)CC1 (centres unmarked) [Compound 99]
Response line: t

Prompt line: Request: O=C(OC1CCN(CC2CC3c4ccccc4Cc4ccc(F)cc4C3O2)C1)c1ccc(F)cc1F (mixture of isomers) [Compound 17]
Response line: t

Prompt line: Request: CC(=Cc1ccccc1)CN1CCN(CC2CC3c4ccccc4Cc4ccc(F)cc4C3O2)CC1 (centres unmarked) [Compound 49]
Response line: f
